Target: T1, Recombinant human PSGL-1(ECD)-hFc1 (R&D Systems, Cat. 3345-PS) (human, UniProt Q14242 42-305)
T1 construct: Bought; Gln42-Val295 counted on AAC50061; also called PSGL-1-Fc; PSGL-1-hFc1 chimera; not shown: human IgG1 Fc, Pro100-Lys330
T1 sequence: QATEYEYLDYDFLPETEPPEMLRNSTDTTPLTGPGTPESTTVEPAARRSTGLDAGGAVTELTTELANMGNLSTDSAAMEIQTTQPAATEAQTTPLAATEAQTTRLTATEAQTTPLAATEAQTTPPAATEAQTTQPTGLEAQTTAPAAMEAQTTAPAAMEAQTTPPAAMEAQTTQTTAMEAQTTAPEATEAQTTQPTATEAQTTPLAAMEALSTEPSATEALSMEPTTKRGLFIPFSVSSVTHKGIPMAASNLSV
Assay: blocking ELISA vs VISTA-Fc, pH 6.0
The entries below are paired with their reported % max Block.
Field format: number, assumed %, no unit text.

03D07 (antibody, IgG4, V domains shown) VH: EVKLLESGGGLVQPGGSLRLSCAASGFTFSSYALSWVRQAPGKGLEWVSAISGSGGNTYYADSVKGRFTISRDNSKNTLYLQMNSLRAEDTAVYYCAKVVGATNYWGQGTLVTVSS VL: DIVMTQTPLSLPVTLGQPASISCRSSQSLVYSDGHTYLSWFHQRPGQSPRRLIYKVSIRDSGVPDRFSGSGSGTDFTLKISRVEAEDVGVYYCMQRLQIPLTFGGGTKVEIK    100
18L13 (antibody, V domains shown, Mouse hybridoma mAb; only variable domains given) VH: EVQLQQSGAELVRPGASVKLSCTASGFNIKDDFMHWVKQRPEQGLEWIGRIDPASGKTEYVPKFQDKATLTADTSSNTAYLQLSSLTSEDTAVYYCARRIAYWGQGTLVTVSA VL: DVVMTQTPLTLSVTIGQPASISCKSSQSLLHSNGKTYLNWLLQRPGQSPKLLIYLVSKLESGLPDRFSGSGSGTDFSLKISRVEAEDLGVYYCLQTTHFPQTFGGGTKLEIK    0
18F02 (antibody, V domains shown, From mouse immunisation; only variable domains given) VH: QVQLQQPGAELVKPGASVKLSCKASGYTFTSYWMHWVKQRPGQGLEWIGMIHPNSGRTNYNEKFKSKATLTVDKSSSTAYMQLSSLTSEDSAVYYCARSDYWGQGTTLTVSS VL: DIVMTQAAFSNPVTLGTSASISCRSSKSLLHSDGITYLYWFLQRPGQSPQLLIYRMSNLASGVPDRFSGSGSGTDFTLRISRVEAEDVGVYYCAQMLEFPRTFGGGTKLEIK    100
10F01 (antibody, IgG4, V domains shown) VH: EVQLVQSGGGLVQPGGSLRLSCAASGFTFSSYAMSWVRQAPGKGLEWVSALRGGDGGTYHADSVKGRFTISGDSSKNTLYLQMNSLRAEDTAVYYCARRMVGAAYAFDIWGQGTMVTVSS VL: LPVLTQPHSVSESPGKTVTISCTRSSGSIADNFVQWYRQRPGSAPTTVIYEGDQRPSGVPGRFSGSIDSSSNSASLTISGLQTDDEADYYCQSFDSYNRRTHVVFGGGTKLTVL    100

Let's switch to this binder now.
Quick note, % max Block for 2E12 (antibody, V domains shown, Mouse hybridoma mAb; only variable domains given) VH: QVQLQQSGAELARPGASVKLSCKASGYTFTNYGLNWVKQRTGQGLEWIGEIYPRSGNTYYNEKFKGKATLTADKSSSTAYMQLSSLTSEDSAVYFCATEGAYWGQGTLVTVSA VL: DIVMTQTPLTLSVTIGQPASISCKSSQSLLHGNGKTYLNWLLQRPGQSPKLLIYLVSKLESGIPDRFSGSGSGTDFTLEISRVEAEDLGIYYCLQSTHFPRTFGGGTKLEIK landed at 0

Attribution: patent US20220396632A1
